Selectivity index P. aeruginosa (CCUG #17619) values, listed per item
# Tested on: P. aeruginosa (CCUG #17619)
# assay-info: Antibacterial activity against isolates (Omnilog, Biolog redox dye)
# Type: cell-based, Pseudomonas aeruginosa
# setup-conditions: SI = ((EC50 MCF-7 + EC50 HepG2)/2)/EC50 bacterial strain
// no unit string in output, number only

Q. Could you share what Selectivity index P. aeruginosa (CCUG #17619) was measured for N=C(N)Nc1ccc(-c2ccc(C(=O)N3CCc4cc(NC(=N)N)ccc43)o2)c(Cl)c1 , tested on P. aeruginosa (CCUG #17619)?
A. 12.2

Q. Then this molecule: N=C(N)Nc1ccc(-c2ccc(-c3ccc(NC(=N)N)cc3)o2)cc1
A. 13.8

Q. Could you do the same for N=C(N)Nc1ccc(-c2ccc(C(=O)N3CCc4cc(NC(=N)N)ccc43)o2)cc1 , please?
A. 8.5

Q. And then N=C(N)Nc1ccc(-c2ccc(-c3ccc(NC(=N)N)cc3Cl)o2)c(Cl)c1 , what is it?
A. 8.1

Q. Next molecule up: Cc1cc(NC(=N)N)ccc1-c1ccc(-c2ccc(NC(=N)N)cc2C)o1
A. 4.2

Q. # iterate: COc1cc(NC(=N)N)ccc1-c1ccc(-c2ccc(NC(=N)N)cc2OC)o1
A. 5.9
